test system: K4 kissing-loop RNA reporter; assay: apparent KD of K4 kissing-loop reporter; higher = weaker reporter binding; settings: Eterna round: R107; input ligand: theophylline 20 uM;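 further: bound reporter read as fluorescence of individual clusters on recovered sequencing chips by microscopy, with normalized cluster intensities fitted with a binding model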
Field: apparent KD of K4 kissing-loop reporter. Provide a value for each of the sequences that follow.
Answers are plain numbers, in nM.

Take a look at these entries with their results.
{"columns": ["sequence_data", "assay_result"],
 "data": [
  ["UUUUAAAUGUCUGAUACCAGAGAAAAUAUAUGUAGUGAUGUUAUAUACAAAAUAAAUAAGCUCCCUUGGCAGCAGUAUUAAUUUU [AstrosExc-TheB#6]", 725],
  ["UCGCGUCUGUGAGGAUAUCAGAACAGAGUGAUGUUCUGUCAACGCCCAGUGAUGUUGGAUGCGAUCUGAGAAGGCACUGGGCGCA [Same State FMN B GF 9]", 1700],
  ["AUUUUUUACAGAAGGAGCGUGUUUUAAUAAUCAUGGUGCUUAGCGAGUGAUGUUCGCUUUACACAGGUAGGUCGCUGUUUAUUUA [JR_Nu_ExcArginiB_Sub030]", 112]
]}

Please report apparent KD of K4 kissing-loop reporter for every entry that follows.
1. CAAGCUCUCCAAGGAUAUGAUAUCGACCCGUCUUAGUGAUGUUAAGGCUGUAGAAAUUCACAUUGAUCAGAAGGUGGUACCCUCC [theeternabot_sameState_KL_FMN_B_8]
2. UUUGGUUUCUCGGCCGCCACUCGUUGGUAAUGGGCCUCAGGGAUAUAGUGAUGUUAUGUAAAGAAGAGGACCGGGAGAAGGAAGG [ExTryptoB.Dn]

stdout:
1: 351; 2: 267

Form field apparent KD of K4 kissing-loop reporter, entry AGUUAUGUAUCAGGAUAUUAGUGAUGUUUGUUUAUGUUAGUGAUGUUGAUAUUUGUUUUAUGUAUUUAAGAAGGGAUUGAGAUGU [ccgcmullin] : 30.6
